Recorded values, source patent US20180298070A1.

- tested target: T1, human GLP-1R (human), P43220
- T1 chain: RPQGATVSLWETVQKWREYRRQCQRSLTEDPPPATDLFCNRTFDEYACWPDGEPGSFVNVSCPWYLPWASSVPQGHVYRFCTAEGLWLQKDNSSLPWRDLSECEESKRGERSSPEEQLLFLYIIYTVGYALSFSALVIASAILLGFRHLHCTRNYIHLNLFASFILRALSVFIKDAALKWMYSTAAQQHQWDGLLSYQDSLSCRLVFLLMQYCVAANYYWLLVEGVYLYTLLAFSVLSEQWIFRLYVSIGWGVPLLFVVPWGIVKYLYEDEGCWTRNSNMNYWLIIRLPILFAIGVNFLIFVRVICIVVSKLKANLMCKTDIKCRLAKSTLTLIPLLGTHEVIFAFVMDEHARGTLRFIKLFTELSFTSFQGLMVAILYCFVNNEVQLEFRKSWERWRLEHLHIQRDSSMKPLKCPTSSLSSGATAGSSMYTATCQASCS
Non-standard residues stand in square brackets, D forms with d. Groups on a side chain read outwards from the residue. Primed or numbered codes have the meaning given here. No end group written: not given here. *: point of attachment. NMeY = CN[C@@H](Cc1ccc(O)cc1)C(=O)O; Lauroyl = CCCCCCCCCCCC(=O)*; Iva = CC[C@](C)(N)C(=O)O; PEG2′ = not defined here; Dda = not defined here; Aib = CC(C)(N)C(=O)O
test readout: Agonist activity (EC50, M)
The figure you give is taken to be in M; do not add the unit.

Tell me measured Agonist activity (EC50, M) for Y[Aib]EGTFISDYSK([PEG2′-Lauroyl])ALDR[Aib]HQ[Aib]NFVNW[Iva]LAQRPSSGAPPPS (not fully specified (C-terminus); ends and bridges not checked) [Compound 215] please.
1.5e-07

Write down Agonist activity (EC50, M) measured for item Me-Y[Aib]EGTFISDYSIALDRIAQ[Aib]SFVNWLLAQRPSSGAPPPSR (not fully specified (residue 1, C-terminus); ends and bridges not checked) [Compound 136]
2.1e-07

Tell me its Agonist activity (EC50, M) given Y[Aib]EGTFISDYSK([PEG2′-Dda])ALDRIAQQDFVNWLLAQRPSSGAPPPSR (ends and bridges not checked) [Compound 188] as the entry.
2e-07

// fetch Agonist activity (EC50, M) given entry [NMeY][Aib]EGTFISDYSIALDRIAQ[Aib]NFVNW[Iva]LAQRPSSGAPPPSR (not fully specified (C-terminus); ends and bridges not checked) [Compound 68]
3.5e-07
